measured_on: CLR/RAMP2 receptor (UniProt Q16602 23-461; O60895 43-175, limits assumed)
Sequence (Q16602 23-461 limits assumed, chain 1 of 2): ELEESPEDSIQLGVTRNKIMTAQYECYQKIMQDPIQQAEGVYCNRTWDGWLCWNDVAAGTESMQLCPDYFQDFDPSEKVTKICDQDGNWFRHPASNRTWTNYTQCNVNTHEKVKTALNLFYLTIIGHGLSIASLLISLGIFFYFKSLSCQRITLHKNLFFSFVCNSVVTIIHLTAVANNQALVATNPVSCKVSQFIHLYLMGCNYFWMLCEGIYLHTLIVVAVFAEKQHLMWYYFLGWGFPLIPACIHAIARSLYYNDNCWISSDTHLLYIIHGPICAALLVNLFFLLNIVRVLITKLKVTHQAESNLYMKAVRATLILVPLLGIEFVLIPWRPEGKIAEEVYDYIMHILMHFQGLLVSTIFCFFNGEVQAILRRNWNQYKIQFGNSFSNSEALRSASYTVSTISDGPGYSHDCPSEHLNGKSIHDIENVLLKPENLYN
Sequence (O60895 43-175 limits assumed, chain 2 of 2): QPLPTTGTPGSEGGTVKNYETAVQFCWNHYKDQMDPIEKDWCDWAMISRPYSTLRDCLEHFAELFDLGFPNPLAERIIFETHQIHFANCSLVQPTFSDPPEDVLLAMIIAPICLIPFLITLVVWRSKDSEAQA
test_details: cell-based or functional assay
Square brackets hold non-standard residues; d marks the D form. Ends that are not written are not given here. * marks the point of attachment. Palmitoyl = CCCCCCCCCCCCCCCC(=O)*; AEEA = NCCOCCOCC(=O)O
Overview of reported CLR/RAMP2 Max Activity across a group of binders:

Known results for binders:
Query block: Quick one: CLR/RAMP2 Max Activity of KGCRFGTCTVQKLAHQIYQFTDKDVAPRSKISPQGY (miniPEG- at N-terminus; K(PAL); (D-Val) in ...GTCT(D-Val)QKL...; -NH2) [SEQ ID NO: 211] ?
Result block: 22 % of positive control

Query block: // query CLR/RAMP2 Max Activity value for entry Ac-FGCRFGTCTVQKLAHQIYQFTDKDKDNVAPRSKISPQGY-NH2 (ends and bridges not checked) [SEQ ID NO: 53 (human ADM)]
Result block: 102 % of positive control

Query block: What CLR/RAMP2 Max Activity value was documented for this binder, KGCRFGTCTVQKLAHQIYQFTDKDVAPRSKISPQGY (miniPEG- at N-terminus; K(PAL); (D-Gln) in ...KISP(D-Gln)GY; -NH2) [SEQ ID NO: 214] ?
Result block: 99 % of positive control

Query block: What value of CLR/RAMP2 Max Activity has been reported for the following binder? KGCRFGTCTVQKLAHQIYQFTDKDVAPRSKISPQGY (miniPEG- at N-terminus; K(PAL); (D-Ser) in ...VAPR(D-Ser)KISPQGY; -NH2) [SEQ ID NO: 213]
Result block: 107 % of positive control

Continuing:
Query block: Sample [AEEA]K(Palmitoyl)CRFGTCTVQKLAHQIYQFTDKDKDNSAPVDPSSPHSY-NH2 (ends and bridges not checked) [SEQ ID NO: 43] — what was its CLR/RAMP2 Max Activity?
Result block: 30 % of positive control

Query block: Query (binder): [AEEA]K(Palmitoyl)GCRFGTCTVQKLAHQIYQFTDKDKDSAPVDPSSPHSY-NH2 (ends and bridges not checked) [SEQ ID NO: 46] ; field requested: CLR/RAMP2 Max Activity
Result block: 104 % of positive control

Query block: So what does the record say about CLR/RAMP2 Max Activity for KGCRFGTCTVQKLAHQIYQFTDKDKSAPVDPSSPHSY (miniPEG- at N-terminus; K(PAL); -NH2) [SEQ ID NO: 47] ?
Result block: 64 % of positive control

Reference for the values: patent US20190153059A1
